Test: Half-life of HSA and of SABA1-4 with or without HSA in mice (ELISA, WinNonlin)
Type: in vivo, Ncr nude female mice
Conditions: injected without HSA
Readout type: half-life in mice plasma (min)
Numbers only; they are read as min.

1. SABA1.1: core SABA1 with N-terminal MGVSDVPRDLE, C-terminal EIDKPSQ and His6 tag; SEQ ID NO: 89 (protein) MGVSDVPRDLEVVAATPTSLLISWHSYYEQNSYYRITYGETGGNSPVQEFTVPYSQTTATISGLKPGVDYTITVYAVYGSKYYYPISINYRTEIDKPSQHHHHHH :: 33.6
2. SABA2.1: His-tagged SABA2 sequence (protein, His6 tag) MGVSDVPRDLEVVAATPTSLLISWPKYDKTGHYYRITYGETGGNSPVQEFTVPTRQTTATISGLKPGVDYTITVYAVSKDDYYPHEHRPISINYRTEIDKPSQHHHHHH :: 14.4
3. SABA3.1: His-tagged SABA3 sequence (protein, His6 tag) MGVSDVPRDLEVVAATPTSLLISWSNDGPGLSYYRITYGETGGNSPVQEFTVPSSQTTATISGLKPGVDYTITVYAVSYYTKKAYSAGPISINYRTEIDKPSQHHHHHH :: 16.8

Please find the next molecule below.
Q: May I ask what half-life in mice plasma has been recorded for SABA4.1: HSA binding clone of SABA4 (protein, His6 tag) MGVSDVPRDLEMVAATPTSLLISWEDDSYYSRYYRITYGETGGNSPVQEFTVPSDLYTATISGLKPGVDYTITVYAVTYDVTDLIMHEPISINYRTEIDKPSQHHHHHH ?
Ans: 39.6
